Measured % Phosphatase Activity (compared to DMSO) PRL-1, listed per entry for reference.
# measured-target: recombinant PRL-1 (Homo sapiens)
# Construct: 6xHis (N, cleaved yes); made in house; host or cells: E. coli One Shot BL21 Star
# Sequence (Q93096 whole entry): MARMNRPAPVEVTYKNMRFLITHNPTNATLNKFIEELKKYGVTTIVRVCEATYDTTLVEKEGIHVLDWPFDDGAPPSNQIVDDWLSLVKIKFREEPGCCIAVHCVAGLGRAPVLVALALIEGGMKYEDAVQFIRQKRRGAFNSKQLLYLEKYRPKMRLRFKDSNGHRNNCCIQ
# assay: In vitro phosphatase assay (DiFMUP hydrolysis), PRL-1; note: test concentration or dose not given here
# Format: biochemical
# run-parameters: FDA-approved drug screen; compared to DMSO
Structures can show the parent of a compound that is named as a salt.
Reply with just the number (in %).

NC(=O)CC[C@H](N)C(=O)O | 94
Nc1nc(CC(=O)Nc2ccc(CCNC[C@H](O)c3ccccc3)cc2)cs1 | 104
Cc1cc(C(C#N)c2ccc(Cl)cc2)c(Cl)cc1NC(=O)c1cc(I)cc(I)c1[O-].[Na+] (centres unmarked) [Closantel Sodium, reference compound] | 15
O=c1[nH]cnc2c1ncn2[C@H]1CC[C@@H](CO)O1 | 95
CN1[C@@H]2CC[C@H]1C[C@@H](OC(c1ccccc1)c1ccccc1)C2 [Benztropine mesylate] | 94
COC(=O)C1=C(C)NC(C)=C(C(=O)OCCN(C)Cc2ccccc2)C1c1cccc([N+](=O)[O-])c1 (centres unmarked) [Nicardipine HCl] | 85

// query % Phosphatase Activity (compared to DMSO) PRL-1 lookup needed for COc1ncc(-c2ccc3nccc(-c4ccnnc4)c3c2)cc1NS(=O)(=O)c1ccc(F)cc1F , thanks.
// result 94

// query I am curious: what % Phosphatase Activity (compared to DMSO) PRL-1 value has been reported for CCOC(=O)C1=C(COCCN)NC(C)=C(C(=O)OC)C1c1ccccc1Cl (centres unmarked) ?
// result 145

// query Which % Phosphatase Activity (compared to DMSO) PRL-1 reading was recorded for the molecule CC(C)(C)CC(C)(C)c1ccc(O)c(Cc2ccc(Cl)cc2Cl)c1 ?
// result 91

// query Query (molecule): COC(=O)[C@@H]1CC2=CC(=O)CC[C@]2(C)[C@@]23O[C@@H]2C[C@@]2(C)[C@@H](CC[C@@]24CCC(=O)O4)[C@H]13 ; field requested: % Phosphatase Activity (compared to DMSO) PRL-1
// result 105

// query Data request, read-out % Phosphatase Activity (compared to DMSO) PRL-1, for Cc1ccc(-n2nc(C(C)(C)C)cc2NC(=O)Nc2ccc(OCCN3CCOCC3)c3ccccc23)cc1
// result 108

// query Need % Phosphatase Activity (compared to DMSO) PRL-1 of COc1ccc(-c2nc3ccc(C4=NNC(=O)CC4C)cc3[nH]2)cc1 (centres unmarked) , thanks.
// result 122

// query Which % Phosphatase Activity (compared to DMSO) PRL-1 is reported for this molecule? C[N+](C)(C)C[C@H](O)CC(=O)[O-]
// result 102

// query Item CN1C[C@@H]2C[C@H]1CN2c1cc2c(cc1F)c(=O)c(C(=O)O)cn2C1CC1.CS(=O)(=O)O [Danofloxacin Mesylate] has what recorded % Phosphatase Activity (compared to DMSO) PRL-1?
// result 998

// query Which % Phosphatase Activity (compared to DMSO) PRL-1 reading was recorded for the molecule CS(=O)(=O)O.Oc1ccc(C2CNCCc3c2cc(O)c(O)c3Cl)cc1 (centres unmarked) [Fenoldopam (mesylate)] ?
// result 108

// query Look at this molecule and give its reported % Phosphatase Activity (compared to DMSO) PRL-1. Cc1[nH]c(=O)c(C#N)cc1-c1ccncc1
// result 98

// query Entry CC1=NS(=O)(=O)c2cc(Cl)ccc2N1 [Diazoxide] : reported % Phosphatase Activity (compared to DMSO) PRL-1 = ?
// result 99
